Species on record: Rattus norvegicus
PROTOCOL: DrugMatrix - Regimen: Daily Repeat
Type: toxicity, organism-based, Sprague-Dawley
Set-up: regimen Daily Repeat, gender Male, age 6-8 weeks
TEST PARAMETERS: in vivo, po, 0 mg/kg, 72 h, tissue Plasma, route oral GAVAGE, dose level Control, time 3 day, […]
# reported LIPASE; entries follow
Supply the numeric figure in u/L, leaving out any unit text.

Given the compound CC(=O)Nc1cccc(O)c1 [METACETAMOL] , what is its reported LIPASE?
10

---

Organism: Rattus norvegicus
PROTOCOL: DrugMatrix - Regimen: Daily Repeat
Format: toxicity, organism-based, Sprague-Dawley
Parameters: regimen Daily Repeat, gender Male, age 6-8 weeks
TEST PARAMETERS: in vivo, po, 0 mg/kg, 72 h, tissue Plasma, route oral GAVAGE, dose level Control, time 3 day, vehicle 100 % WATER
OBSERVATION TYPE: SODIUM (MEQ/L)
State the answer as a number, implicitly in MEQ/L.

[[record]]
molecule = "CC(C)(C)c1ccc(C(=O)CCCN2CCC(OC(c3ccccc3)c3ccccc3)CC2)cc1"
observation_type = "SODIUM"
reported = 142.88

[[record]]
molecule = "C[C@@H]1C[C@@H]([C@H](O)CC2CC(=O)NC(=O)C2)C(=O)[C@@H](C)C1 [CYCLOHEXIMIDE]"
observation_type = "SODIUM"
reported = 141.53

[[record]]
molecule = "Nc1ccn([C@@H]2CS[C@H](CO)O2)c(=O)n1"
observation_type = "SODIUM"
reported = 144.87


Need SODIUM, item Cc1ncc([N+](=O)[O-])n1CCO
144.43
